PROTOCOL_DETAILS: PK study of Form A of Compound I in dogs
Type: in vivo
MEASUREMENT_SETUP: beagle, dog, plasma, po, 75 mg/kg, PO dose of 75 mg/kg, 4 hr, Dog #2, read-out: plasma concentration
ENDPOINT_NAME: concentration at 4 hr (ng/mL)
Field format: number, assumed ng/mL, no unit text.

Query block: Record request: concentration at 4 hr value, item COC(=O)N[C@H](C(=O)N1CCC[C@H]1c1ncc(-c2ccc3cc(-c4ccc5nc([C@@H]6CCCN6C(=O)[C@@H](NC(=O)OC)C(C)C)[nH]c5c4)ccc3c2)[nH]1)C(C)C [Form A of Compound I]
Result block: 1540

###

PROTOCOL_DETAILS: Solubility of Form I and free base compound 4-3 (visual and HPLC assay of filtrate)
Format: physicochemical
MEASUREMENT_SETUP: pH 7 medium, pH 7, aqueous buffer, thermodynamic from solid, pH 7 medium; target conc. 2.0 mg/mL; 24 hours ambient; 0.45-μm filtrate; read-out: HPLC Solubility
ENDPOINT_NAME: solubility at 24 h

Query block: Record request: solubility at 24 h value, item CC[C@H](C)[C@H](NC(=O)OC)C(=O)N1CCC[C@H]1c1nc2ccc(-c3ccc4cc(-c5cnc([C@@H]6CCCN6C(=O)[C@@H](NC(=O)OC)[C@@H](C)OC)[nH]5)ccc4c3)cc2[nH]1
Result block: < 1 µg/mL

###

PROTOCOL_DETAILS: PK study of Form A of Compound I in dogs
Format: in vivo
MEASUREMENT_SETUP: beagle, dog, plasma, po, 75 mg/kg, PO dose of 75 mg/kg, 1 hr, Dog #2, read-out: plasma concentration
Description: The pharmacokinetics (PK) properties of Form A of Compound I and Form I of Compound II were determined in a series of comprehensive experiments in preclinical species including Sprague-Dawley rats, beagle dogs, cynomolgus monkeys. […] For the validated assay in rat and monkey EDTA plasma, the Lower Limit of Quantitation (LLOQ) for both compound 1 and 2 was 5.00 ng/mL, and the assay was linear from 5.00-1,000 ng/mL. […]
ENDPOINT_NAME: concentration at 1 hr (ng/mL)
Field format: number, assumed ng/mL, no unit text.

Query block: Record request: concentration at 1 hr value, item COC(=O)N[C@H](C(=O)N1CCC[C@H]1c1ncc(-c2ccc3cc(-c4ccc5nc([C@@H]6CCCN6C(=O)[C@@H](NC(=O)OC)C(C)C)[nH]c5c4)ccc3c2)[nH]1)C(C)C [Form A of Compound I]
Result block: 2050

###

PROTOCOL_DETAILS: PK study of Form A of Compound I in rats
Assay type: in vivo
MEASUREMENT_SETUP: male, Sprague-Dawley, rat, plasma, po, 75 mg/kg, single PO dose of 75 mg/kg, male SD rats, 12 hr, Rat #1; read-out: plasma concentration
ENDPOINT_NAME: concentration at 12 h (ng/mL)
Field format: number, assumed ng/mL, no unit text.

Query block: Record request: concentration at 12 h value, item COC(=O)N[C@H](C(=O)N1CCC[C@H]1c1ncc(-c2ccc3cc(-c4ccc5nc([C@@H]6CCCN6C(=O)[C@@H](NC(=O)OC)C(C)C)[nH]c5c4)ccc3c2)[nH]1)C(C)C [Form A of Compound I]
Result block: 188
